Recorded values, source the RepoRT retention time repository (doi:10.1007/s11306-014-0727-x).

Experiment: HILIC, Merck SeQuant ZIC-pHILIC, 100 × 2.1 mm, 5 µm, 25 °C; gradient (min/%B) 0/3 1/3 12/30 14.5/90 17/90 18.5/3 24/3
Details: stereoisomer not certain
Counter-ions that a name gives are not always drawn.
OBSERVABLE: LC retention time (min)

Answered cases to consult:
{"columns": ["COMPOUND", "UNIT_ANNOTATION", "ASSAY_VALUE"],
 "data": [
  ["c1ccc(CNCc2ccccc2)cc1 [Dibenzylamine]", "min", 7.37],
  ["Nc1nc2c(ncn2C2CC(O)C(CO)O2)c(=O)[nH]1 (stereo not given) [Deoxyguanosine]", "min", 9.48],
  ["CC(N)=O [Acetamide]", "min", 2.38],
  ["NC(=O)c1ccc[n+](C2OC(COP(=O)(O)OP(=O)([O-])OCC3OC(n4cnc5c(N)ncnc54)C(O)C3O)C(O)C2O)c1 (stereo not given) [Nicotinamide adenine dinucleotide]", "min", 14.1]
]}

[a] c1c[nH]cn1 [Imidazole]
[b] CC(C)=CCNc1ncnc2nc[nH]c12 [6-(Y-Y-Dimethylallylamino)purine]
[c] N[C@@H](Cc1cnc[nH]1)C(=O)O [L-Histidine monohydrochloride]
In: Sort these compounds on LC retention time so the largest reading comes first. Output spec: labels arranged per the requested ranking.
Out: c, a, b

---

Test: HILIC, Merck SeQuant ZIC-pHILIC, 100 × 2.1 mm, 5 µm, 25 °C; gradient (min/%B) 0/3 1/3 12/30 14.5/90 17/90 18.5/3 24/3
Settings: stereoisomer not certain
OBSERVABLE: LC retention time (min)

Answered cases to consult:
{"columns": ["COMPOUND", "ASSAY_VALUE"],
 "data": [
  ["CC(N)C(=O)O (stereo unspecified)", 12.1],
  ["O=C(O)CC1OCC=C2CN3CCC45C6=CC(=O)C(=O)C([N+](=O)[O-])=C6NC4C1C2CC35 (stereo unspecified)", 11.6],
  ["Cn1c(=O)c2[nH]cnc2n(C)c1=O", 2.28],
  ["NC(N)=NCCC[C@H](N)C(=O)O", 16],
  ["O=C(O)CNCC(=O)O", 13.7]
]}

[A] O=C(O)C1CCNCC1
[B] Nc1ccc(C(=O)NCC(=O)O)cc1
In: Please tell me which of the two, A or B , has the higher reported LC retention time value. Bench note: the answer is the label of the chosen record.
Out: A

[P] NCCCC(=O)O
[Q] Cc1cn(C2CC(O)C(CO)O2)c(=O)[nH]c1=O (stereo unspecified)
In: Which entry shows the lesser value of LC retention time here, P or Q ? Bench note: the answer is the label of the chosen record.
Out: Q

---

Test: HILIC, Merck SeQuant ZIC-pHILIC, 100 × 2.1 mm, 5 µm, 25 °C; gradient (min/%B) 0/3 1/3 12/30 14.5/90 17/90 18.5/3 24/3
Settings: stereoisomer not certain
Counter-ions that a name gives are not always drawn.
OBSERVABLE: LC retention time (min)

{"columns": ["COMPOUND", "UNIT_ANNOTATION", "LC retention time"],
 "data": [
  ["NCCC(N)C(=O)O (racemic) [DL-2-4-Diaminobutyric acid dihydrochloride]", "min", 15.9],
  ["Nc1ccnc(=O)[nH]1 [Cytosine]", "min", 10.4],
  ["C1COCCN1 [Morpholine]", "min", 10.4]
]}

[P] CC(O)C(=O)O (configuration not stated) [Lactic acid]
[Q] NCC(=O)NCC(=O)O [Glycylglycine]
In: Please tell me which of the two, P or Q , has the higher reported LC retention time value. Bench note: the answer is the label of the chosen record.
Out: Q

[P] Oc1cc(O)c2c(c1)OC(c1ccc(O)c(O)c1)C(O)C2 (configuration not stated) [Catechin]
[Q] CN(C)c1ccc(C=CC=O)cc1 [4-(dimethyl amino) cinnamaldehyde]
In: Which entry shows the lesser value of LC retention time here, P or Q ? Bench note: the answer is the label of the chosen record.
Out: Q
(Q: 1.17 min, P: 8.63 min)

---

Assay: HILIC, Merck SeQuant ZIC-pHILIC, 100 × 2.1 mm, 5 µm, 25 °C; gradient (min/%B) 0/3 1/3 12/30 14.5/90 17/90 18.5/3 24/3
Conditions: stereoisomer not certain
OBSERVABLE: LC retention time (min)

{"columns": ["COMPOUND", "LC retention time, min"],
 "data": [
  ["C[C@@H](O)[C@H](N)C(=O)O", 12.5],
  ["Nc1ccccc1C(=O)CC(N)C(=O)O (stereo not drawn)", 9.76],
  ["NC(CCS)C(=O)O (racemic)", 11.1]
]}

---

Assay: HILIC, Merck SeQuant ZIC-pHILIC, 100 × 2.1 mm, 5 µm, 25 °C; gradient (min/%B) 0/3 1/3 12/30 14.5/90 17/90 18.5/3 24/3
Conditions: stereoisomer not certain
OBSERVABLE: LC retention time (min)

{"columns": ["COMPOUND", "LC retention time, min"],
 "data": [
  ["O=C(O)[C@@H]1C[C@@H](O)CN1 [Trans-4-hydroxy-L-proline]", 12.1],
  ["CC1OC(OCC2OC(Oc3c(-c4ccc(O)c(O)c4)oc4cc(O)cc(O)c4c3=O)C(O)C(O)C2O)C(O)C(O)C1O (configuration not stated) [Rutin Trihydrate]", 9.3],
  ["OCCNCCO", 11.3],
  ["NC(N)=NCC(=O)O", 12.8],
  ["COc1cc(-c2ccc(N)c(OC)c2)ccc1N", 1.46],
  ["NCCc1ccc(O)cc1", 10.5],
  ["NC(CC(=O)O)C(=O)O (racemic)", 13.6],
  ["Cc1ncc(CO)c(CO)c1O", 9.21],
  ["COc1ccc2[nH]cc(CC(N)C(=O)O)c2c1 (racemic)", 9.74],
  ["O=C(O)c1cc(=O)c2cccc(O)c2[nH]1 [4 8-Dihydroxyquinoline-2-carboxylic acid]", 9.54],
  ["Cc1ncc(COP(=O)(O)O)c(C=O)c1O [Pyridoxal-5'-phosphate]", 10.3],
  ["CC(N)(CO)CO", 12.7]
]}

---

Experiment: HILIC, Merck SeQuant ZIC-pHILIC, 100 × 2.1 mm, 5 µm, 25 °C; gradient (min/%B) 0/3 1/3 12/30 14.5/90 17/90 18.5/3 24/3
Conditions: stereoisomer not certain
OBSERVABLE: LC retention time (min)

{"columns": ["MOL", "LC retention time / min"],
 "data": [
  ["CN(C)Cc1ccccc1", 7.54],
  ["O=C(O)[C@@H]1CCCN1", 10.4],
  ["N[C@H](Cc1c[nH]c2ccccc12)C(=O)O", 10.1],
  ["NCc1ccccc1", 10.2],
  ["CCCC[C@H](N)C(=O)O", 9.62]
]}
